# tgt: C-X-C chemokine receptor type 4 (Homo sapiens, UniProt P61073, E288A)
# Sequence (P61073 whole entry E288A): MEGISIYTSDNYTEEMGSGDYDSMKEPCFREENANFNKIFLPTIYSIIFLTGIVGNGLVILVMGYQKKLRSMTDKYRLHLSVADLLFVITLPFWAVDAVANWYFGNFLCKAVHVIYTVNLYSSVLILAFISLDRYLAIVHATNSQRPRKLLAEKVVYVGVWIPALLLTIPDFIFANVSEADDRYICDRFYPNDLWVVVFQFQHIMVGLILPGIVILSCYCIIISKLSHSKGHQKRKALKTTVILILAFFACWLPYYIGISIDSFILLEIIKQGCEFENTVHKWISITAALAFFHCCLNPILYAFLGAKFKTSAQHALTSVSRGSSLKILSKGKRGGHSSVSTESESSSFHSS
# assay-name: Antagonist activity at human CXCR4 E288A mutant expressed in COS7 cells coexpressing G protein Gqi4myr assessed as inhibition of CXCL12-induced phosphatidylinositol turnover
# Format: functional, cell-based, COS-7
recorded-metric: pKi
Lab note — pKi values are minus log10 of concentrations in M.

Exercise: Provide pKi, recorded with C-X-C chemokine receptor type 4 (Homo sapiens, UniProt P61073, E288A), of Cc1ccc(CN2CCCNCCNCCCNCC2)cc1
Key: 3.52

Exercise: Provide pKi, recorded with C-X-C chemokine receptor type 4 (Homo sapiens, UniProt P61073, E288A), of c1ccc(CNCc2ccc(CN3CCCNCCNCCCNCC3)cc2)nc1
Key: 5.72

Exercise: Provide pKi, recorded with C-X-C chemokine receptor type 4 (Homo sapiens, UniProt P61073, E288A), of c1ccc(CNCc2ccc(CN3CCCNCCNCCCNCC3)cc2)cc1
Key: 4.96

Provenance of the data: ChEMBL document CHEMBL1156482
